B1: tRNA (parent)
chain: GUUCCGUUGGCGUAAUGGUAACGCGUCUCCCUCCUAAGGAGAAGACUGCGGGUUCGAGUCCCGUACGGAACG

# Variants of: B1
# assay overview: yeast fitness, log relative to wild type (ln ratio); higher = fitter; tRNA-Arg(CCU), competitive growth, 37 C, 1 M NaCl
Consider the following variants; for each one, report its yeast fitness (ln).
Enter a number only.

Give its yeast fitness (ln) value. Item: G1A U2G C27U C66U A70U C71U -0.365

Give its yeast fitness (ln) value. Item: U2C G6U C27U C66U -0.0859

Give its yeast fitness (ln) value. Item: G1A U2G G6U C27U A43C C66A A69G A70G C71U -0.461

Give its yeast fitness (ln) value. Item: U2G G6A C66A A70U C71U -0.123

Give its yeast fitness (ln) value. Item: G1A G6A C27U A69G A70U C71U -0.504

Give its yeast fitness (ln) value. Item: G1A G6A C27U A43C C66A A70G C71U -0.267

Give its yeast fitness (ln) value. Item: U2G C27U C66U A69G -0.231

Give its yeast fitness (ln) value. Item: U2C G6U C27U A43C C46U C71U -0.17

Give its yeast fitness (ln) value. Item: G1A C27U A43C C66A A69G A70U -0.391

Give its yeast fitness (ln) value. Item: U2C G6U C27U A43C C66A A69G A70U C71U -0.398

Give its yeast fitness (ln) value. Item: G1A U2G G6A C27U C46U C66U A69G A70U -0.219

Give its yeast fitness (ln) value. Item: U2G C27U A43C C66U A70G -0.257

Give its yeast fitness (ln) value. Item: G6A C27U A43C C46U C66U A69G A70U -0.306

Give its yeast fitness (ln) value. Item: G6U C46U A69G C71U -0.194

Give its yeast fitness (ln) value. Item: G1A G6A A43C C46U A70U C71U -0.191

Give its yeast fitness (ln) value. Item: U2C G6U C27U A43C C66A A69G A70G -0.156

Give its yeast fitness (ln) value. Item: G1A U2C A43C C71U -0.185

Give its yeast fitness (ln) value. Item: G1A G6A C27U C46U C66U -0.421

Give its yeast fitness (ln) value. Item: G1A G6A A43C C46U C66U A69G A70U -0.479

Give its yeast fitness (ln) value. Item: G1A G6U C27U A70U -0.232

Give its yeast fitness (ln) value. Item: G1A G6U C27U C66U A70U C71U -0.461

Give its yeast fitness (ln) value. Item: G6A A69G C71U -0.134

Give its yeast fitness (ln) value. Item: U2G C66A A69G C71U -0.145

Give its yeast fitness (ln) value. Item: G1A U2G G6U C27U A43C C46U C66A A69G A70G C71U -0.337

Give its yeast fitness (ln) value. Item: U2G A43C A70U C71U -0.0697

Give its yeast fitness (ln) value. Item: G1A G6U A43C C66A A69G C71U -0.863

Give its yeast fitness (ln) value. Item: U2G G6A A43C C46U A69G A70G C71U -0.226

Give its yeast fitness (ln) value. Item: U2G G6A C27U A69G A70U -0.151

Give its yeast fitness (ln) value. Item: U2C G6A A43C C46U C66U A70G -0.0107

Give its yeast fitness (ln) value. Item: G1A U2G G6U A43C C66U A70U C71U -0.237

Give its yeast fitness (ln) value. Item: G1A U2G G6A C27U A69G A70G C71U -0.443

Give its yeast fitness (ln) value. Item: G1A U2G C27U C66U C71U -0.244

Give its yeast fitness (ln) value. Item: U2G G6U C27U A43C C46U A69G A70G -0.242

Give its yeast fitness (ln) value. Item: G1A U2C G6U C27U C46U C66A A69G A70U -0.116

Give its yeast fitness (ln) value. Item: G1A G6A C27U C46U C66U A69G C71U -0.132

Give its yeast fitness (ln) value. Item: U2G C27U A43C C66A A70G -0.179

Give its yeast fitness (ln) value. Item: U2G C27U A43C C46U A70U -0.00371

Give its yeast fitness (ln) value. Item: U2G C27U A43C A70G C71U -0.151

Give its yeast fitness (ln) value. Item: U2C G6U A43C C46U C66A A69G A70U C71U -0.396

Give its yeast fitness (ln) value. Item: G6A A43C C46U C66A A69G A70U -0.317

Give its yeast fitness (ln) value. Item: U2G A43C C46U C66U A69G A70U -0.172

Give its yeast fitness (ln) value. Item: G1A U2G C27U A43C C46U C66A A70G -0.178

Give its yeast fitness (ln) value. Item: G1A G6U C27U A43C C66A A69G A70G C71U -0.417

Give its yeast fitness (ln) value. Item: G1A U2G G6U C46U A70U C71U -0.511

Give its yeast fitness (ln) value. Item: G1A C46U C66A A69G A70U -0.0801

Give its yeast fitness (ln) value. Item: C27U A43C C46U A70U -0.0673

The measurements presented in this section are drawn from the RNAGym collection of RNA variant scans (doi:10.1038/s41586-018-0170-7).
